Assay Endpoint: melting point

>  <Molecule>
COC(=O)/C=C/c1ccc(CC(C)NCC(O)c2ccccc2F)cc1 (stereo not drawn)

>  <Assay Endpoint>
melting point

>  <Measured>
111 to 116 °C

$$$$
>  <Molecule>
CON1C=C2N=NC3=C(N2C1)N(c1ccccn1)CC(C)=C3

>  <Assay Endpoint>
melting point

>  <Measured>
216 to 220 °C

$$$$
>  <Molecule>
CC(C)(C)c1ccc(CCC(=O)CCC2CCCCCC2)cc1NC(=O)CC1c2ccccc2Oc2ccccc21

>  <Assay Endpoint>
melting point

>  <Measured>
136 to 137 °C

$$$$

###

melting point values for the compounds below.
Assay Endpoint: melting point

>  <Compound>
Cc1nc(C(=O)N2CCCC2)c2n1-c1ccc(Cl)cc1C(c1ccccc1F)=NC2

>  <Measured>
220 to 221 °C

$$$$
>  <Compound>
CC1CCc2c(Cl)c(N3CCOCC3)cc3c(=O)c(C(=O)O)cn1c23 (configuration not stated)

>  <Measured>
271 to 274 °C

$$$$
>  <Compound>
Cc1c(F)cc2c(=O)c(C(=O)O)cn(C3CC3)c2c1F

>  <Measured>
208 to 210 °C

$$$$
>  <Compound>
CN1CC=C(c2c[nH]c3ccc(N)cc23)C(F)C1 (configuration not stated)

>  <Measured>
176 to 178 °C

$$$$
>  <Compound>
O=C(c1cccc2c1NCC2)N1CCN(c2cccc(C(F)(F)F)c2)CC1

>  <Measured>
115 to 118 °C

$$$$
>  <Compound>
CCOc1cc(OCC)c2c(C)c(CCO)c(=O)oc2c1

>  <Measured>
117 to 119 °C

$$$$
>  <Compound>
CCC(CC)c1nnc(NC)n(N)c1=O

>  <Measured>
119 to 120 °C

$$$$

###

Assay Endpoint: melting point

>  <Compound>
O=C(CCCCCNC(=O)[C@H](Cc1c[nH]c2ccccc12)NC(=O)CCCc1c[nH]c2ccccc12)NO

>  <Measured>
94 to 96 °C

$$$$
>  <Compound>
COc1ccc(-c2cc3cc(F)c(F)cc3[nH]2)cc1NS(=O)(=O)c1cc(Cl)cc(Cl)c1

>  <Measured>
217 to 219 °C

$$$$
>  <Compound>
CN1CCN(c2ccc3cn[nH]c3n2)CC1

>  <Measured>
196 to 197 °C

$$$$
>  <Compound>
NC(=O)CN1CCC(c2nn(-c3ccc(C(F)(F)F)cc3)c3cc(F)ccc23)CC1

>  <Measured>
174 to 176 °C

$$$$
>  <Compound>
COc1cc(C)nc(NC(=O)NS(=O)(=O)c2cc([N+](=O)[O-])cs2)n1

>  <Measured>
155 °C

$$$$
>  <Compound>
Fc1ccc2nc(CBr)ccc2c1

>  <Measured>
90 to 92 °C

$$$$
>  <Compound>
COC(=O)Cn1nnc(N)n1

>  <Measured>
127 to 128 °C

$$$$
>  <Compound>
CCOC(=O)CC(=O)c1cc(F)c(F)c(F)c1F

>  <Measured>
47 to 49 °C

$$$$
>  <Compound>
CN1C(C)(C#N)CCC1(C)C#N (stereo not drawn)

>  <Measured>
81 to 83 °C

$$$$
>  <Compound>
CC(C)c1ccc(-n2c(CC(=O)O)c(C(=O)O)c3cc(Oc4ccc(Cl)cc4)ccc32)cc1

>  <Measured>
174 to 180 °C

$$$$
>  <Compound>
CC(=O)N1c2ccccc2CC1c1cc(Cl)ccc1NC(=O)C(C)(C)C (stereo not drawn)

>  <Measured>
131 to 134 °C

$$$$
>  <Compound>
COC(=O)COc1ccc(OC)cc1NC(=O)c1ccc(OCCCCc2ccccc2)cc1

>  <Measured>
91 to 93 °C

$$$$
>  <Compound>
O=C(OCc1ccccc1)[C@H](CC(=O)N1C[C@H]2CCCC[C@H]2C1)Cc1ccccc1

>  <Measured>
107 to 108 °C

$$$$
>  <Compound>
CC#CCOc1ccc(S(=O)(=O)C(C(=O)NO)C2CCNCC2)cc1 (stereo not drawn)

>  <Measured>
140 °C

$$$$
>  <Compound>
C#Cc1cc(NC(=O)c2cnn(-c3ccc(Cl)cc3)c2C)ccc1N1CCC(N2CCOCC2)CC1

>  <Measured>
203 to 205 °C

$$$$
>  <Compound>
CCn1cc(C(=O)O)c(=O)cc1-c1cccc(Cl)c1

>  <Measured>
212 to 213 °C

$$$$
>  <Compound>
CNC(=O)c1c(N)n(C2CCCC2)c2nc(Cl)ccc2c1=O

>  <Measured>
256 to 258 °C

$$$$
>  <Compound>
NC(=O)c1cc(-c2ccnc(Nc3cccc(C(F)(F)F)c3)n2)ccn1

>  <Measured>
240 to 242 °C

$$$$

###

melting point values for the compounds below.
Assay Endpoint: melting point

>  <Compound>
COc1ccc(C(CC(=O)O)N2C(=O)c3ccccc3C2=O)cc1 (centres undefined)

>  <Assay Endpoint>
melting point

>  <Measured>
160 to 164 °C

$$$$
>  <Compound>
CCCCOc1nc(N)c2nc(OC)n(CCSc3cccc(CC(=O)O)c3)c2n1

>  <Assay Endpoint>
melting point

>  <Measured>
205 to 207 °C

$$$$
>  <Compound>
CCOc1cc(N(C)C)c(Cl)cc1C(=O)NC1CCN(Cc2ccccc2)C1 (centres undefined)

>  <Assay Endpoint>
melting point

>  <Measured>
112 to 113 °C

$$$$
>  <Compound>
CC(C)Cn1nc(-c2ccc(F)cc2F)cc(COS(C)(=O)=O)c1=O

>  <Assay Endpoint>
melting point

>  <Measured>
86.7 to 88.6 °C

$$$$

###

melting point values for the compounds below.
Assay Endpoint: melting point

>  <Compound>
COC(=O)c1ccccc1S(=O)(=O)NC(=O)N1NC(=O)N(O)C1OC (stereo not drawn)

>  <Assay Endpoint>
melting point

>  <Measured>
180 °C

$$$$
>  <Compound>
CC1=C(c2ccc(O)cc2)C(=O)c2cc(O)c(O)cc21

>  <Assay Endpoint>
melting point

>  <Measured>
226 to 229 °C

$$$$
>  <Compound>
[N-]=[N+]=NCC1OC(n2c(Cl)c(C=O)c3cc(Cl)c(Cl)cc32)C(O)C1O (stereo not drawn)

>  <Assay Endpoint>
melting point

>  <Measured>
160 to 161 °C

$$$$
>  <Compound>
CCc1nc2c(N)nc3cc(CCC(=O)N(C)C)ccc3c2n1CC1CCOCC1

>  <Assay Endpoint>
melting point

>  <Measured>
219 to 220 °C

$$$$
>  <Compound>
COc1cc(O)c2c(=O)c(OC)c(-c3ccc(O)cc3OC)oc2c1

>  <Assay Endpoint>
melting point

>  <Measured>
191 to 192 °C

$$$$
>  <Compound>
NC(=O)c1ccc(-c2nn(Cc3ccccc3)c3ccccc23)o1

>  <Assay Endpoint>
melting point

>  <Measured>
259 °C

$$$$
>  <Compound>
CCC(=O)N1CCN(c2n[nH]c3ncnc(Nc4cccc(Cl)c4)c23)CC1

>  <Assay Endpoint>
melting point

>  <Measured>
247 to 250 °C

$$$$
>  <Compound>
NC(=O)c1nccn1C1Cc2c(cccc2-c2ccccc2)C1=O (stereo not drawn)

>  <Assay Endpoint>
melting point

>  <Measured>
196 °C

$$$$
>  <Compound>
CC(=O)OC(CN(Cc1ccccc1)Cc1ccccc1)c1cc(C#N)c2c(c1)CCN2C(C)=O (stereo not drawn)

>  <Assay Endpoint>
melting point

>  <Measured>
108 to 109 °C

$$$$
>  <Compound>
O=C(c1ccoc1)c1cccc(-c2c(O)c3ccc(Cl)cc3[nH]c2=O)c1

>  <Assay Endpoint>
melting point

>  <Measured>
284 to 286 °C

$$$$
>  <Compound>
Cc1ccc(-c2cc(NCc3cccc(CNc4cc(-c5ccc(C)cc5)[nH]n4)n3)n[nH]2)cc1

>  <Assay Endpoint>
melting point

>  <Measured>
154 °C

$$$$
>  <Compound>
COC(CC(=O)c1cccc(Br)c1)C(=O)O (stereo not drawn)

>  <Assay Endpoint>
melting point

>  <Measured>
82.5 to 83.5 °C

$$$$
>  <Compound>
OCc1cccc2c(Cl)c3ccccc3cc12

>  <Assay Endpoint>
melting point

>  <Measured>
138 to 140 °C

$$$$
>  <Compound>
COCC1c2ccccc2CCN1c1nc(Nc2ccc(F)cc2)nc(C)c1C (stereo not drawn)

>  <Assay Endpoint>
melting point

>  <Measured>
193 to 195 °C

$$$$
>  <Compound>
Nc1ccccc1C(=O)NCC1CCN(C(c2ccccc2)c2ccccc2)CC1

>  <Assay Endpoint>
melting point

>  <Measured>
153 to 154 °C

$$$$
>  <Compound>
CCCOc1ccccc1-c1nc2ccccc2c(=O)[nH]1

>  <Assay Endpoint>
melting point

>  <Measured>
88 to 89 °C

$$$$
>  <Compound>
Cc1ccc(NC(=O)C2C(=O)N(C)c3ccccc3S2(=O)=O)cc1 (stereo not drawn)

>  <Assay Endpoint>
melting point

>  <Measured>
218 to 220 °C

$$$$
>  <Compound>
CC(C)c1cc(CCC(=O)O)n(Cc2ccc(Cl)cc2Cl)n1

>  <Assay Endpoint>
melting point

>  <Measured>
105 to 108 °C

$$$$
>  <Compound>
Cc1cc2c(c(C)c1NC(=O)CC(C)(C)C)C(c1ccc(C(C)C)cc1)CS2 (stereo not drawn)

>  <Assay Endpoint>
melting point

>  <Measured>
151 to 152 °C

$$$$
>  <Compound>
N#CCC(O)(Cn1cncn1)c1ccc(F)cc1F (stereo not drawn)

>  <Assay Endpoint>
melting point

>  <Measured>
154 to 155 °C

$$$$
>  <Compound>
O=C1Nc2cccc(Cl)c2C(=O)N2C=CC[C@@H]12

>  <Assay Endpoint>
melting point

>  <Measured>
249 to 251 °C

$$$$
>  <Compound>
Cc1ccc(C2NCCc3c2[nH]c2ccccc32)cc1 (stereo not drawn)

>  <Assay Endpoint>
melting point

>  <Measured>
207 to 209 °C

$$$$
>  <Compound>
Cc1nc(Nc2cccc(C(F)(F)F)c2)c2ccccc2c1Cc1ccc(Cl)nc1

>  <Assay Endpoint>
melting point

>  <Measured>
137 °C

$$$$
>  <Compound>
COc1cc(CCCCC2OC(=O)NC2=O)ccc1OCc1csc(/C=C/c2ccccc2)n1 (stereo not drawn)

>  <Assay Endpoint>
melting point

>  <Measured>
167 to 168 °C

$$$$
>  <Compound>
O=C(Nc1ccc(-c2nc3ccccc3s2)cc1)C(Cl)Cl

>  <Assay Endpoint>
melting point

>  <Measured>
223 to 225 °C

$$$$
>  <Compound>
O=C1OC(=Nc2ccc(Cl)cc2F)C2=C1CCCC2

>  <Assay Endpoint>
melting point

>  <Measured>
81 to 84 °C

$$$$
>  <Compound>
COc1cc(Nc2c(C#N)cnc3cc(OCC(C)(C)CN(C)C)c(OC)cc23)c(Cl)cc1Cl

>  <Assay Endpoint>
melting point

>  <Measured>
178 to 180 °C

$$$$
>  <Compound>
CC(=O)Nc1ccc(-c2cc(-c3nc4ccccc4c(=O)n3-c3ccccc3)sc2N2CCOCC2)cc1

>  <Assay Endpoint>
melting point

>  <Measured>
> 275 °C

$$$$
>  <Compound>
CCCCOc1c(CNC(=O)OC(C)(C)C)n(CC(C)C)c(=O)c2ccc(-c3nc(C)c(C(=O)O)s3)cc12

>  <Assay Endpoint>
melting point

>  <Measured>
107 to 109 °C

$$$$
>  <Compound>
COc1ccc(S(=O)(=O)n2ccc3ccnc(-c4ccc(N(C)C)cc4)c32)cc1

>  <Assay Endpoint>
melting point

>  <Measured>
112 to 114 °C

$$$$
>  <Compound>
Cc1nc(C(C)(O)c2nc(C)c(C)s2)sc1C

>  <Assay Endpoint>
melting point

>  <Measured>
143 to 144 °C

$$$$
>  <Compound>
COc1ccccc1CNc1cc(C(N)=O)c([N+](=O)[O-])cc1[N+](=O)[O-]

>  <Assay Endpoint>
melting point

>  <Measured>
198 to 202 °C

$$$$
>  <Compound>
CC(=O)N(C#N)CCCCCCN(C#N)C(C)=O

>  <Assay Endpoint>
melting point

>  <Measured>
59 to 61 °C

$$$$
